Cited source for all entries: paper PMC7357788

Target: LRX1^ΔE-FLAG (Arabidopsis thaliana)
Experiment: BLI; BLITZ; LRX^ΔE-FLAG mixed with anti-FLAG M2 antibody and loaded onto a protein A biosensor; synthetic RALF1 peptide added at 0.2-200 μM; association 120 s, dissociation 120 s; sample diluent buffer (Pall FortéBio)
ASSAY_READOUT: Kd (nM)
Give bare numbers, in nM.

Look at this binder and give its reported Kd. ATTKYISYQSLKRNSVPCSRRGASYYNCQNGAQANPYSRGCSKIARCRS [synthetic RALF1 peptide]
4.5
